System: Fusarium graminearum
assay.protocol: Fungicidal activity against Fusarium graminearum assessed as inhibition of mycelium growth at 50 ug/mL by mycelium growth rate method
Type: functional
Kindly state inhibition at 50 µg/mL for each of the entries shown.
Just the number in %, nothing appended.

IN: What inhibition at 50 µg/mL value was documented for this molecule, COC(=O)c1cccc2nc3cc(C(=O)C(Cl)(Cl)Cl)ccc3nc12 ?
OUT: 4.8

IN: What inhibition at 50 µg/mL value was documented for this molecule, COC(=O)c1cccc2nc3c(S(=O)(=O)c4ccccc4[N+](=O)[O-])cccc3nc12 ?
OUT: 43.2

IN: What inhibition at 50 µg/mL value was documented for this molecule, COC(=O)c1cccc2nc3c(C(=O)CCCCl)cccc3nc12 ?
OUT: 25

IN: What inhibition at 50 µg/mL value was documented for this molecule, CCCOC(=O)c1cccc2nc3cc(N)c(OCCC)cc3nc12 ?
OUT: 20

IN: What inhibition at 50 µg/mL value was documented for this molecule, CCCCOC(=O)c1cccc2nc3c([N+](=O)[O-])c(N)ccc3nc12 ?
OUT: 25

IN: What inhibition at 50 µg/mL value was documented for this molecule, CCCCOC(=O)c1cccc2nc3cc(OCCCC)c(N)cc3nc12 ?
OUT: 42.4

IN: What inhibition at 50 µg/mL value was documented for this molecule, COC(=O)c1cccc2nc3cc(N)ccc3nc12 ?
OUT: 15.1

IN: What inhibition at 50 µg/mL value was documented for this molecule, COC(=O)c1cccc2nc3cc(C(=O)c4ccc(Cl)cc4Cl)ccc3nc12 ?
OUT: 0

IN: What inhibition at 50 µg/mL value was documented for this molecule, CCCOC(=O)c1cccc2nc3cc(N)ccc3nc12 ?
OUT: 25.5

IN: What inhibition at 50 µg/mL value was documented for this molecule, CCCCOC(=O)c1cccc2nc3cc(N)ccc3nc12 ?
OUT: 7.3

IN: What inhibition at 50 µg/mL value was documented for this molecule, Nc1cccc2nc3c(C(=O)O)cccc3nc12 ?
OUT: 12.9

IN: What inhibition at 50 µg/mL value was documented for this molecule, COC(=O)c1cccc2nc3cc(C(=O)CCCCl)ccc3nc12 ?
OUT: 36.8

IN: What inhibition at 50 µg/mL value was documented for this molecule, COC(=O)c1cccc2nc3ccc(N)cc3nc12 ?
OUT: 18.2

IN: What inhibition at 50 µg/mL value was documented for this molecule, CCOC(=O)c1cccc2nc3c(N)cccc3nc12 ?
OUT: 41.8

IN: What inhibition at 50 µg/mL value was documented for this molecule, COC(=O)c1cccc2nc3cc(S(=O)(=O)c4ccc([N+](=O)[O-])cc4)ccc3nc12 ?
OUT: 0

IN: What inhibition at 50 µg/mL value was documented for this molecule, CCCCOC(=O)c1cccc2nc3ccc(N)cc3nc12 ?
OUT: 23.6

IN: What inhibition at 50 µg/mL value was documented for this molecule, CCCCOC(=O)c1cccc2nc3cc(N)c(OCCCC)cc3nc12 ?
OUT: 23.6

IN: What inhibition at 50 µg/mL value was documented for this molecule, COC(=O)c1cccc2nc3c(N)c([N+](=O)[O-])cc([N+](=O)[O-])c3nc12 ?
OUT: 57.6

IN: What inhibition at 50 µg/mL value was documented for this molecule, CCCOC(=O)c1cccc2nc3c(N)cccc3nc12 ?
OUT: 43.6

IN: What inhibition at 50 µg/mL value was documented for this molecule, CCOC(=O)c1cccc2nc3ccc(N)cc3nc12 ?
OUT: 20

IN: What inhibition at 50 µg/mL value was documented for this molecule, CCCCOC(=O)c1cccc2nc3c(N)c([N+](=O)[O-])cc([N+](=O)[O-])c3nc12 ?
OUT: 53

IN: What inhibition at 50 µg/mL value was documented for this molecule, COC(=O)c1cccc2nc3c(C(=O)CCc4ccccc4)cccc3nc12 ?
OUT: 30.3

IN: What inhibition at 50 µg/mL value was documented for this molecule, COC(=O)c1cccc2nc3c(N)cccc3nc12 ?
OUT: 36.3
